Experiment: Solubility in water of polymer and of monomer
Assay type: physicochemical
Conditions: thermodynamic from solid
observationType: solubility

Would you mind telling me what solubility value was observed for C=CC(=O)OCCCCCCCCCCCCCCCCCC [SA, stearyl acrylate] ?
< 100 µg/mL
